Test: PK study in mice
Assay type: in vivo
Settings: male, ICR, mouse, plasma, iv, 0.5 mg/kg
Value Type: MRT inf (h)
Express your answer in h, writing the number without its unit.

For the molecule `C[C@@H](c1ccc(-n2cnc3c(N)ncnc32)cc1)N1CCc2nn(C)c(Cc3ccccc3)c2C1=O` , what MRT inf is on record? 1.49

----------
Experiment: PK study in rats
Assay type: in vivo
Details: SD, rat, plasma, po, 5 mg/kg
Value Type: half-life (h)
Please give a number only; it is taken to be in h.

Form field: reported half-life of `C[C@@H](c1ccc(-n2cnc3c(N)ncnc32)cc1)N1CCc2nn(C)c(Cc3ccccc3)c2C1=O` 4.19

----------
Assay: PK study in mice
Format: in vivo
Settings: male, ICR, mouse, plasma, iv, 0.5 mg/kg
Value Type: AUC(0-t) (ng·h/mL)
I only need the number, in ng·h/mL, no unit after it.

What does the record list as AUC(0-t) for `C[C@@H](c1ccc(-n2cnc3c(N)ncnc32)cc1)N1CCc2nn(C)c(Cc3ccccc3)c2C1=O` ? 471

----------
Assay: PK study in rats
Assay type: in vivo
Conditions: male, SD, rat, plasma, iv, 0.5 mg/kg
Value Type: clearance
Kindly report the value followed by its unit.

// lookup clearance for C[C@@H](c1ccc(-n2cnc3c(N)ncnc32)cc1)N1CCc2nn(C)c(Cc3ccccc3)c2C1=O [compound 62] 13.3 mL/min/kg

----------
Collected half-life values appear next to each entry.
Assay: Metabolic stability in human liver microsomes
Type: in vitro ADME

CNC(=O)c1ccc2c(c1)ncn2-c1ccc(CNC(=O)c2cc(Cc3ccccc3)n(C)n2)cc1: ~40 min

Let us examine a further case.
Quick one: half-life of `CNC(=O)c1ccc2c(c1)ncn2-c1ccc(CNC(=O)c2cnn(C)c2Cc2ccccc2)cc1` ? ~40 min

----------
Test: PK study in mice
Assay type: in vivo
Conditions: male, ICR, mouse, plasma, po, 5 mg/kg
Value Type: AUC(0-t)
Number plus unit, in that order.

Using the record for `C[C@@H](c1ccc(-n2cnc3c(N)ncnc32)cc1)N1CCc2nn(C)c(Cc3ccccc3)c2C1=O` , report its AUC(0-t). 6500 ng·h/mL

----------
pIC50 values by entry
Biological target: UniProtKB Q13546
Sequence (Q13546 whole entry): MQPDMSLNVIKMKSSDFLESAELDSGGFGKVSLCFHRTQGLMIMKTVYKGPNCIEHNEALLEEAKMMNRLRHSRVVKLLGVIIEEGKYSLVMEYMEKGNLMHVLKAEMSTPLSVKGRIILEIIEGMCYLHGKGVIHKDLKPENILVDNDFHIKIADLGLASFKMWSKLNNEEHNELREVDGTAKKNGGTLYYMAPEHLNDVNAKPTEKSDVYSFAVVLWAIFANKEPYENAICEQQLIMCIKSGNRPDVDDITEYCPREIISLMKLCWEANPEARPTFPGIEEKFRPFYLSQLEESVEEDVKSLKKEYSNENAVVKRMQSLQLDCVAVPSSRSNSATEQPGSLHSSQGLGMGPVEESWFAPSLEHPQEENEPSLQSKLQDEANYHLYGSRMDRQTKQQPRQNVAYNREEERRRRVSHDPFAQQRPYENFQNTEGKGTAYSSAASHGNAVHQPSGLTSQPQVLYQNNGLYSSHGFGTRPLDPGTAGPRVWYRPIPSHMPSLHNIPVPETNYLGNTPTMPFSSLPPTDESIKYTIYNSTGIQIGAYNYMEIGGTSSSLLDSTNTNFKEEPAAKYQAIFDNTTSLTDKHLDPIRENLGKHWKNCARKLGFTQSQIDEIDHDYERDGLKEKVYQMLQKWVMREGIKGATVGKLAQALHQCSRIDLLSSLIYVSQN
Assay: In vitro RIPK1 kinase activity assay
Format: biochemical
Conditions: Enzymatic IC50s RIPK1, hRIPK1 enzymatic assay
As a rule, pIC50 stands for the negative log10 of the concentration, concentration in M.

Cn1ncc(C(=O)NCc2ccc(-n3cnc4c(N)ncnc43)cc2)c1Cc1ccccc1: 8.02

Proceeding to the next compound to report its pIC50.
Value lookup for pIC50; key = `C[C@@H](c1ccc(-n2cnc3c(N)ncnc32)cc1)N1CCc2nn(C)c(Cc3ccccc3)c2C1=O` 8.46

----------
Experiment: PK study in mice
Type: in vivo
Conditions: male, ICR, mouse, plasma, po, 10 mg/kg
Value Type: bioavailability (%)
The reply should be a number in %, with the unit left off.

Could you share which bioavailability value was measured for `Cn1ncc(C(=O)NCc2ccc(-n3cnc4c(N)ncnc43)cc2)c1Cc1ccccc1` ? 25.4

What do you have for `C[C@H](NC(=O)c1cnn(C)c1Cc1ccccc1)c1ccc(-n2cnc3c(N)ncnc32)cc1` ? 37

Next up: `Cn1nc(Cl)c(C(=O)NCc2ccc(-n3cnc4c(N)ncnc43)cc2)c1Cc1ccccc1` 63.9
